molecular target: UniProtKB P28845; test: Enzymatic 11beta-HSD1 test (SPA-based detection); assay type: biochemical; conditions: [1,2-3H]-cortisone substrate, 0.25 mM NADPH, 37° C., 1 hour; read-out: IC50 (nM), Biological activity in nanomolar
Sequence (P28845 whole entry): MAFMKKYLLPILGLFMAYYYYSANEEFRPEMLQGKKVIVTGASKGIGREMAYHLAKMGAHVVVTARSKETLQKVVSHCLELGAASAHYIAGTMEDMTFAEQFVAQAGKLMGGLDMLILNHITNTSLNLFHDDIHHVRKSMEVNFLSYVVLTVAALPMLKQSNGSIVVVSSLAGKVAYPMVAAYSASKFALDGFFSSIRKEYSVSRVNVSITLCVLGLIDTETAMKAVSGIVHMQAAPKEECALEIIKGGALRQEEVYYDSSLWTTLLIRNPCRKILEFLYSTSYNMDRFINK
outcomeMeasure: IC50 (nM)
Please respond with the number in nM and leave the unit unwritten.

Query string: Tell me the measured IC50 of O=S1(=O)CC2(CCCC2)OC(NC2CCCCC2)=N1 , please.
Result string: 308

Query string: Then O=S1(=O)CC2(CCCC2)OC(N[C@@H](CCO)c2ccccc2)=N1 ?
Result string: 113

Query string: Then CC1(C)CS(=O)(=O)N=C(N[C@@H](CCO)c2ccccc2)O1 ?
Result string: 307

Query string: Then O=S1(=O)CC2(CCCCC2)OC(NC2CCCCC2)=N1 ?
Result string: 300

Query string: Then O=S1(=O)CC2(CCC2)OC(N[C@@H](CCO)c2ccccc2)=N1 ?
Result string: 128

Query string: Then O=S1(=O)CC2(CCCCC2)OC(N[C@@H](CCO)c2ccccc2)=N1 ?
Result string: 66

Query string: Then O=S1(=O)CC2(CCC2)OC(NC2CCCCC2)=N1 ?
Result string: 399

Query string: Then CC1C(C)(C)OC(NC2CCCCC2)=NS1(=O)=O (centres unmarked) ?
Result string: 139

Cited source for all entries: patent US8710050B2
